ASSAY_SYSTEM: MCP-1 receptor (Homo sapiens)
Construct: endogenous in cells
Sequence (P41597 1-360 isoform P41597-2): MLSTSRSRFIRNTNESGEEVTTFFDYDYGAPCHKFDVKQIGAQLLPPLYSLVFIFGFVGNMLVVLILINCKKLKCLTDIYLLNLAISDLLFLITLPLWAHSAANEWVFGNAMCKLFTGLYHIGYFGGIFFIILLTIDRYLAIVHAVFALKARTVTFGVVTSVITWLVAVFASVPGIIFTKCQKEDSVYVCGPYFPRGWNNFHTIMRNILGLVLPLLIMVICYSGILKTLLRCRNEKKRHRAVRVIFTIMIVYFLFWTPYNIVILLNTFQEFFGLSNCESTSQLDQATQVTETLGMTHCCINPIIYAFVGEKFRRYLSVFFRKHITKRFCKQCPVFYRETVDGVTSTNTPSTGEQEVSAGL
RUN_DESCRIPTION: MCP-1 binding assay (125I-labeled MCP-1, THP-1 cell membranes)
EXPERIMENTAL_CONTEXT: THP-1 membranes, 0.2 nM 125I-MCP-1, 30 minutes at room temperature; read-out: Inhibition of MCP-1 Binding IC50
IC50 overview
Please give a number only; it is taken to be in nM.

[Q] # get_value(readout='IC50', item= COc1ccc(-c2[nH]nc(O)c2N)cc1 [Example 6] )
[A] 1490

[Q] # get_value(readout='IC50', item= NC(=O)c1[nH]n(-c2ccc(Cl)cc2Cl)c(=O)c1N [Example 19] )
[A] 6240

[Q] # get_value(readout='IC50', item= Cc1c(N)c(=O)n(-c2ccccc2)n1C [Example 13] )
[A] 2270
